Biological target: T1, sIL-6R (soluble IL-6 receptor; SBH Sciences) (human, UniProt P08887 20-365)
T1 construct: also called human IL-6R
T1 sequence: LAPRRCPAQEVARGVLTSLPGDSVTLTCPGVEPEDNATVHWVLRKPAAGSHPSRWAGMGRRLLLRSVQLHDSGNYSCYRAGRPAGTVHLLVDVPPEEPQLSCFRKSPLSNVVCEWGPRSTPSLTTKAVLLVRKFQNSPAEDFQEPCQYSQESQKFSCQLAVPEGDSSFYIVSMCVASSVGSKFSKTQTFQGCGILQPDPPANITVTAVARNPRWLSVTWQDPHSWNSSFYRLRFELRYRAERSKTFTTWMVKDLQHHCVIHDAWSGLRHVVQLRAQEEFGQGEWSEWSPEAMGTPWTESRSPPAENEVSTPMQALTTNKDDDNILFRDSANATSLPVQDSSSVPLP
Assay: SPR (BIAcore 3000), antibody on chip, sIL-6R analyte, 25 C
Value Kind: koff (s⁻¹)

Binder	Number
Tocilizumab (antibody, human IgG1, kappa, V domains shown, also called 25; 25(control)) VH: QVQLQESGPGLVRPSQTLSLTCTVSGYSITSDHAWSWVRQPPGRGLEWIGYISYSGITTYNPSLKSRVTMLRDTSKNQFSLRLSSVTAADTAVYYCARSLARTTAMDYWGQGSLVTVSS VL: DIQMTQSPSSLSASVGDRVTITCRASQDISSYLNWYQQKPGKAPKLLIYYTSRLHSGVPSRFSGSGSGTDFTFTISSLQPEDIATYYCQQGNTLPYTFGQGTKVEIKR	0.000353
17# (antibody, human IgG1, kappa, V domains shown, also called Sample # 17) VH: QVQLQESGPGLVRPSQTLSLTCTVSGYSITSDHAWSWVRQPPGRGLEWIGFISYSGITTYNPSLKSRVTMLRDTSKNQFSLRLSSVTAADTAVYYCARCLARTTAMDYWGQGSLVTVSS VL: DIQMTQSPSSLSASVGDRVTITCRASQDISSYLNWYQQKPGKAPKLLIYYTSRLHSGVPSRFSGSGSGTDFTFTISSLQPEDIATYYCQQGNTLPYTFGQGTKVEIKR	0.000117
30# (antibody, human IgG1, kappa, V domains shown, also called Sample # 30) VH: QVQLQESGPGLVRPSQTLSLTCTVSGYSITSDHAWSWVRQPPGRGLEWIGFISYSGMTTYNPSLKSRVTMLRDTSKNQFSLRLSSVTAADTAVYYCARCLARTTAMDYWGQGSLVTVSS VL: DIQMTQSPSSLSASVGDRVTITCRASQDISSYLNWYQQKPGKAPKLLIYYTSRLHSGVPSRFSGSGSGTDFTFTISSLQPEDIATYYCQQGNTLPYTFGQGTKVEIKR	8.33e-05
28# (antibody, human IgG1, kappa, V domains shown, also called Sample # 28) VH: QVQLQESGPGLVRPSQTLSLTCTVSGYSITSDHAWSWVRQPPGRGLEWIGFISYSGMTTYNPSLKSRVTMLRDTSKNQFSLRLSSVTAADTAVYYCARSLARTTAMDYWGQGSLVTVSS VL: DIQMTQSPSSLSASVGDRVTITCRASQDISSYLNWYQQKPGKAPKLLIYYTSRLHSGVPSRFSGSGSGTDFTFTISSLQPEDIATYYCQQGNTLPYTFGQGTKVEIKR	0.000148
